# protocol_summary: Ex vivo biodistribution in Daudi xenograft-bearing mice
# assay_context: male, NOD.Cg-Rag1tm1Mom Il2rgtm1Wjl/SzJ (NRG), mouse, testes, iv, total radioactivity, Testes uptake, 1 h p.i. blocked with LY2510924, mean
Where a SMILES comes first, the peptide text is derived from it. Side-chain parts run from the residue outwards. [ ]: non-standard residue; d: D form. The star is where a group is joined. DOTA = O=C(O)CN1CCN(CC(=O)O)CCN(CC(=O)*)CCN(CC(=O)O)CC1; 2Nal = N[C@@H](Cc1ccc2ccccc2c1)C(=O)O; dNMeOrn = CN[C@H](CCCN)C(=O)O; 4Amb = NCc1ccc(C(=O)O)cc1
measured_metric: tissue uptake at 1 h (%ID/g)
One number for each entry, in %ID/g.

Challenge: What measured tissue uptake at 1 h goes with CN1C(=O)[C@@H](Cc2ccc(O)cc2)NC(=O)CNC(=O)[C@H](Cc2ccc3ccccc3c2)NC(=O)[C@H](CCCNC(=N)N)NC(=O)[C@H]1CCCNC(=O)c1ccc(CNC(=O)CN2CCN(CC(=O)O)CCN(CC(=O)O)CCN(CC(=O)O)CC2)cc1 [[68Ga]Ga-Pentixafor, metal not drawn] (cyclo([dY][dNMeOrn]([4Amb-DOTA])R[2Nal]G)) ?
Response given: 0.55
